Organism: Rattus norvegicus
Experiment: Inhibition of rat intestinal alpha-glucosidase at 100 ug/mL after 5 mins by spectrophotometry
reported-property: inhibition (%)

As a guide, the following entries are already answered.
1. O=C(c1ccccc1)c1cc2cc(-c3ccccc3)ccc2oc1=O; 70
2. CCOC(=O)c1cc2cc(-c3ccc(F)cc3)ccc2oc1=O; 66.7
3. CC(=O)c1cc2cc(-c3cccnc3)ccc2oc1=O; 96.4
4. Cc1c(C#N)c(=O)oc2ccc(-c3ccccc3)cc12; 95.5
5. CCOC(=O)c1cc2ccc(O)cc2oc1=O; 77.6
6. CC(=O)c1cc2cc(Br)ccc2oc1=O; 31.9

(a) COc1ccc(-c2ccc3oc(=O)c(C(C)=O)cc3c2)cn1
(b) O=C(c1ccccc1)c1cc2ccc(O)cc2oc1=O
Between the two listed entries a and b , which has its inhibition at the higher number? API: response body contains the label of the selected item.
a

(1) O=C(c1ccccc1)c1cc2ccccc2oc1=O
(2) CCOC(=O)c1cc2cc(-c3cncnc3)ccc2oc1=O
Between the two listed entries 1 and 2 , which has its inhibition at the higher number? API: response body contains the label of the selected item.
2
(2: 80.4%, 1: 44.4%)
